Target: HLA-A*24:03
Experiment: IEDB peptide-MHC binding, purified MHC/direct/fluorescence; filed as Kd, often an IC50 or EC50 that approximates it; bounds were set here for any values at or beyond the usual limits of such assays
Settings: source organism: Mycobacterium tuberculosis variant bovis
measurement name: Kd
A bare number is not enough; add the unit after it.

Incoming: Consider the sequence SYYPDQKSL and give its measured Kd.
Outgoing: 8.4 nM

---

Target: HLA-B*44:03
Assay: IEDB peptide-MHC binding, purified MHC/competitive/radioactivity; filed as Kd, often an IC50 or EC50 that approximates it; bounds were set here for any values at or beyond the usual limits of such assays
Settings: source organism: Dengue virus 2 Jamaica/1409/1983
Catalogue of sequences with associated pKd
In simple prose, pKd is minus the logarithm base ten of a concentration in moles per litre.

Below, 2 sequences whose answers are already recorded.
AEPPFGDSYI    7.10
REEEEAGVLW    7.44

Next item in the queue.
Incoming: Look at this sequence and give its reported pKd. SEFQIYKKSG
Outgoing: 5.43
